Test: MRT (infinity) in Sprague-Dawley rat at 1 mg/kg, iv measured up to 8 hrs by LC-MS/MS analysis
Type: ADME, organism-based
Conditions: in vivo
readout_type: MRT inf (h)

C[C@@H](C1CC1)N1Cc2cc(-c3ccn4nc(N)c(C(=O)N[C@H]5CC[C@@](C)(O)CC5)c4n3)cc(OC(F)(F)F)c2C1=O
2.33
C[C@@H](C1CC1)N1Cc2cc(-c3ccn4nc(N)c(C(=O)N[C@H]5CC[C@@](C)(O)CC5)c4n3)cc(OC(F)F)c2C1=O
1.86

---

Species: Homo sapiens
Assay: Selectivity ratio of IC50 for inhibition of PI3Kdelta (unknown origin) to IC50 for inhibition of PI3Kgamma (unknown origin)
readout_type: Ratio IC50

Below are worked cases with known answers.
Cc1cc(-c2ccn3nc(N)c(C(=O)NC4COC4)c3n2)cc2c1C(=O)N([C@@H](C)C1CC1)C2
388
Cc1cc(-c2ccn3nc(N)c(C(=O)NC4CC4)c3n2)cc2c1C(=O)N([C@@H](C)C1CC1)C2
460
Cc1cc(-c2ccn3nc(N)c(C(=O)N[C@H]4CC[C@H](O)CC4)c3n2)cc2c1C(=O)N([C@@H](C)C1CC1)C2
51

(P) C[C@@H](C1CC1)N1Cc2cc(-c3ccn4nc(N)c(C(=O)NC5CC5)c4n3)cc(OC(F)(F)F)c2C1=O
(Q) C[C@@H](C1CC1)N1Cc2cc(-c3ccn4nc(N)c(C(=O)NC5CC5)c4n3)cc(S(C)(=O)=O)c2C1=O
(R) Cc1cc(-c2ccn3nc(N)c(C(=O)NC4CC4)c3n2)cc2c1C(=O)N(CC1CC1)C2
Q: Please list these in order of increasing Ratio IC50. Thank you! The reply should contain the labels ordered as requested.
Ans: R, Q, P
(R: 84, Q: 236, P: 518)

(a) C[C@@H](C1CC1)N1Cc2cc(-c3ccn4nc(N)c(C(=O)NC5CC5)c4n3)cc(C3CC3)c2C1=O
(b) CC(C)[C@H](N1Cc2cc(-c3ccn4nc(N)c(C(=O)NC5CC5)c4n3)cc(NS(C)(=O)=O)c2C1=O)C(F)(F)F
Q: Looking only at measured Ratio IC50, which entry is lower, a or b ? Mark your answer with the label of the selected entry.
Ans: a
(a: 178, b: 323)

---

Biological target: Phosphatidylinositol 4,5-bisphosphate 3-kinase catalytic subunit alpha isoform (Homo sapiens, UniProt P42336)
Sequence (P42336 whole entry, canonical isoform): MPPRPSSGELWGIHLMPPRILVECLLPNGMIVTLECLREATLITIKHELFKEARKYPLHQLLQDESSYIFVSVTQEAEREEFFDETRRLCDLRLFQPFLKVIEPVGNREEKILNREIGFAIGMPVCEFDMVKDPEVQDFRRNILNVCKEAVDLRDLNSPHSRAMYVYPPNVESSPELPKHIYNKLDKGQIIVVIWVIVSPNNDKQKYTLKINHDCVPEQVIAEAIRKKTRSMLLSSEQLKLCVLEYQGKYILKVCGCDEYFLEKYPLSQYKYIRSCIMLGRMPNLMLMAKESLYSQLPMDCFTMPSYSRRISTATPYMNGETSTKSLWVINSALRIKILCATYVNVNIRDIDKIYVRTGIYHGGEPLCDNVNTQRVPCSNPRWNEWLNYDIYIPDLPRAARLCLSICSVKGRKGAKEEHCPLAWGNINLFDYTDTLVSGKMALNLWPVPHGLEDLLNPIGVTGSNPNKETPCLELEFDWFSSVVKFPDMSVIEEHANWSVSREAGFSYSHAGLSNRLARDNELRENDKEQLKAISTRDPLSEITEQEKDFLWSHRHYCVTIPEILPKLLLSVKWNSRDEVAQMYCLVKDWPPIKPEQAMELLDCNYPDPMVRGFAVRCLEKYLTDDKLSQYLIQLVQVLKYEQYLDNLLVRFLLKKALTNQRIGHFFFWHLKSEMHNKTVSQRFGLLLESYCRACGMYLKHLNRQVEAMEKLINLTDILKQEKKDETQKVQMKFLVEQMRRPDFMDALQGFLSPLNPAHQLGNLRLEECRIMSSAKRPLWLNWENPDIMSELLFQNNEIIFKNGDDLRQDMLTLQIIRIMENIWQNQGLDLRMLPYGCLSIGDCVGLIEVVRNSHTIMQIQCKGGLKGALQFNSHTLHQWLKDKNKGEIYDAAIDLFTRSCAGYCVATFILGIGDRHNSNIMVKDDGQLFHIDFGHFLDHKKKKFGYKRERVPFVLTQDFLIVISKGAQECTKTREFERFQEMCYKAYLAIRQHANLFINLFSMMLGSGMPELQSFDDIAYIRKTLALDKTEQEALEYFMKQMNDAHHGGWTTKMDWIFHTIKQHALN
Assay: Inhibition of PI3Kalpha (unknown origin) using PIP2 as substrate preincubated for 1 hr followed by substrate addition and measured after 60 mins in presence of ATP by ADP-glo assay
readout_type: IC50 (nM)

Cc1cc(-c2ccn3nc(N)c(C(=O)N[C@H]4CC[C@H](O)CC4)c3n2)cc2c1C(=O)N([C@@H](C)C1CC1)C2
188
CC(C)[C@H](N1Cc2cc(-c3ccn4nc(N)c(C(=O)NC5CC5)c4n3)cc(NS(C)(=O)=O)c2C1=O)C(F)(F)F
3680

(A) CC[C@H](N1Cc2cc(-c3ccn4nc(N)c(C(=O)NC5CC5)c4n3)cc(NS(C)(=O)=O)c2C1=O)C(F)(F)F
(B) C[C@@H](C1CC1)N1Cc2cc(-c3ccn4nc(N)c(C(=O)NC5CC5)c4n3)cc(Cl)c2C1=O
Q: Hi there! Just curious which has the higher IC50 between A and B . Mark your answer with the label of the selected entry.
Ans: A

---

Test: Metabolic stability in rat hepatocyte assessed as intrinsic clearance per 10^8 cells at 0.5 uM by LC-MS/MS analysis
Format: ADME, cell-based
Details: hepatocytes
readout_type: hepatocyte intrinsic clearance (µL/min)

Below are worked cases with known answers.
Cc1cc(-c2ccn3nc(N)c(C(=O)N[C@H]4CC[C@H](O)CC4)c3n2)cc2c1C(=O)N([C@@H](C)C1CC1)C2
10.8
Cc1cc(-c2ccn3ncc(-c4cnn(C)c4)c3n2)cc2c1C(=O)N([C@@H](C)C1CC1)C2
10.3

(I) Cc1cc(-c2ccn3nc(N)c(C(=O)Nc4cnn(C)c4)c3n2)cc2c1C(=O)N([C@@H](C)C1CC1)C2
(II) C[C@@H](C1CC1)N1Cc2cc(-c3ccn4nc(N)c(C(=O)N[C@H]5CC[C@@](C)(O)CC5)c4n3)cc(OC(F)(F)F)c2C1=O
Q: Looking only at measured hepatocyte intrinsic clearance, which entry is lower, I or II ? Mark your answer with the label of the selected entry.
Ans: II

---

Target: UniProt P33261
Sequence (P33261 whole entry): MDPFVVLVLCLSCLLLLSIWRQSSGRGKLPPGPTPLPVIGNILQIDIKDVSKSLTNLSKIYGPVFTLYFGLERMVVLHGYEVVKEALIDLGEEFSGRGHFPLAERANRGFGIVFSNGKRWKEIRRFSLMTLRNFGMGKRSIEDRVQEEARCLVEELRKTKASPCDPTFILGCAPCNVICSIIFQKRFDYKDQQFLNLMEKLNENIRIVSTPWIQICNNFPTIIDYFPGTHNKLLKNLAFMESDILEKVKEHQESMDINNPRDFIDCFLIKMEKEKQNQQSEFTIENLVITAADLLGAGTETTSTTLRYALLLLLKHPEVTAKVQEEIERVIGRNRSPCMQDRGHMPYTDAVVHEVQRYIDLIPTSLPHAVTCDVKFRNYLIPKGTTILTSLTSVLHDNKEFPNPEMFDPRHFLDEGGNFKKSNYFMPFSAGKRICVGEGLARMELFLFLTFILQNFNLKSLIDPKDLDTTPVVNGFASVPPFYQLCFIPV
Assay: Time dependent inhibition of CYP2C19 in human liver microsomes at 40 uM using (S)-mephenytoin as substrate measured after 5 to 20 mins in presence of NADPH by LC/MS/MS analysis
pIC50: −log10 of the molar value.
readout_type: pIC50

Q: Form: Entry = `C[C@@H](C1CC1)N1Cc2cc(-c3ccn4nc(N)c(C(=O)N[C@H]5CC[C@@](C)(O)CC5)c4n3)cc(OC(F)F)c2C1=O` | System = UniProt P33261 | pIC50 = ____
Ans: < 4.70

---

Assay: Half life in C57BL/6 mouse at 0.5 mg/kg, iv
Type: ADME, organism-based
Conditions: in vivo
readout_type: half-life (h)

C[C@@H](C1CC1)N1Cc2cc(-c3ccn4nc(N)c(C(=O)N[C@H]5CC[C@@](C)(O)CC5)c4n3)cc(OC(F)F)c2C1=O
4.98
C[C@@H](C1CC1)N1Cc2cc(-c3ccn4nc(N)c(C(=O)N[C@H]5CC[C@@](C)(O)CC5)c4n3)cc(OC(F)(F)F)c2C1=O
3.93

---

Biological target: hERG (Homo sapiens)
Sequence (Q12809 whole entry): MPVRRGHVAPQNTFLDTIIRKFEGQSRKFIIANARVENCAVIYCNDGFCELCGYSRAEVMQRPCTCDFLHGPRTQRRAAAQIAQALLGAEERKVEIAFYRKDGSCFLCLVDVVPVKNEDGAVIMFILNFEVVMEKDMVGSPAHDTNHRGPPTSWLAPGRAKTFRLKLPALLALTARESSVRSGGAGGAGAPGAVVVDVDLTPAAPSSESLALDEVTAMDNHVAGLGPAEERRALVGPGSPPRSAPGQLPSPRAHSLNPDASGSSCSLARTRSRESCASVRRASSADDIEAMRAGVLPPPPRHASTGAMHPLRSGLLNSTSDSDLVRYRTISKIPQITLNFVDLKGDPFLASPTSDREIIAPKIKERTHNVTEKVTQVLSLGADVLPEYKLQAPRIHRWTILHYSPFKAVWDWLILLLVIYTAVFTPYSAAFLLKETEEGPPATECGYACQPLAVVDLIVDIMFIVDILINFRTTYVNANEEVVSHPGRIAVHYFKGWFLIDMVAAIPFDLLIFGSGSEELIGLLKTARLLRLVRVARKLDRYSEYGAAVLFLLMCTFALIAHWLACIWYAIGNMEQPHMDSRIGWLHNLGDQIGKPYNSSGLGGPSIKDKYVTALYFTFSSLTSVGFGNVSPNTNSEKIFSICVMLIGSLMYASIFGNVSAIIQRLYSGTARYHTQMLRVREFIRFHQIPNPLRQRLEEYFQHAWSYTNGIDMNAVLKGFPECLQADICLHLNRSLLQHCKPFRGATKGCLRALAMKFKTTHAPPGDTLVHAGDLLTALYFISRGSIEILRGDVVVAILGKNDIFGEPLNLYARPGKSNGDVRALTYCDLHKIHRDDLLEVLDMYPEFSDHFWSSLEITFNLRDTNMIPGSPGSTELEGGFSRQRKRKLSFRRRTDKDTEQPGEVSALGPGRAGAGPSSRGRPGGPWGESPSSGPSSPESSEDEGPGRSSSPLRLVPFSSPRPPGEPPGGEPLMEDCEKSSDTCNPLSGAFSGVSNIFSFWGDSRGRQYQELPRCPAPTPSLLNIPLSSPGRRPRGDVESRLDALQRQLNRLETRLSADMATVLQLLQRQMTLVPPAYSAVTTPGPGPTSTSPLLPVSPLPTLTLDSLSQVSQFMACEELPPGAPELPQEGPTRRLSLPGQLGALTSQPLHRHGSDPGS
Assay: Inhibition of human ERG at 10 uM by patch clamp assay relative to control
Type: toxicity
readout_type: inhibition at 10 µM (%)
Write it as a number; the unit % goes unstated.

Below are worked cases with known answers.
C[C@@H](C1CC1)N1Cc2cc(-c3ccn4nc(N)c(C(=O)N[C@H]5CC[C@@](C)(O)CC5)c4n3)cc(OC(F)(F)F)c2C1=O
5
C[C@@H](C1CC1)N1Cc2cc(-c3ccn4nc(N)c(C(=O)N[C@H]5CC[C@](O)(C(F)(F)F)CC5)c4n3)cc(NS(C)(=O)=O)c2C1=O
68
C[C@@H](C1CC1)N1Cc2cc(-c3ccn4nc(N)c(C(=O)N[C@@H](CO)C5CC5)c4n3)cc(OC(F)F)c2C1=O
21

Next compound, inhibition at 10 µM to be filled in.
Q: Field request: inhibition at 10 µM | item: `C[C@@H](C1CC1)N1Cc2cc(-c3ccn4nc(N)c(C(=O)N[C@H]5CC[C@@](C)(O)CC5)c4n3)cc(OC(F)F)c2C1=O`
Ans: 17

---

Molecular target: Phosphatidylinositol 4,5-bisphosphate 3-kinase catalytic subunit gamma isoform (Homo sapiens)
Sequence (P48736 whole entry, canonical isoform): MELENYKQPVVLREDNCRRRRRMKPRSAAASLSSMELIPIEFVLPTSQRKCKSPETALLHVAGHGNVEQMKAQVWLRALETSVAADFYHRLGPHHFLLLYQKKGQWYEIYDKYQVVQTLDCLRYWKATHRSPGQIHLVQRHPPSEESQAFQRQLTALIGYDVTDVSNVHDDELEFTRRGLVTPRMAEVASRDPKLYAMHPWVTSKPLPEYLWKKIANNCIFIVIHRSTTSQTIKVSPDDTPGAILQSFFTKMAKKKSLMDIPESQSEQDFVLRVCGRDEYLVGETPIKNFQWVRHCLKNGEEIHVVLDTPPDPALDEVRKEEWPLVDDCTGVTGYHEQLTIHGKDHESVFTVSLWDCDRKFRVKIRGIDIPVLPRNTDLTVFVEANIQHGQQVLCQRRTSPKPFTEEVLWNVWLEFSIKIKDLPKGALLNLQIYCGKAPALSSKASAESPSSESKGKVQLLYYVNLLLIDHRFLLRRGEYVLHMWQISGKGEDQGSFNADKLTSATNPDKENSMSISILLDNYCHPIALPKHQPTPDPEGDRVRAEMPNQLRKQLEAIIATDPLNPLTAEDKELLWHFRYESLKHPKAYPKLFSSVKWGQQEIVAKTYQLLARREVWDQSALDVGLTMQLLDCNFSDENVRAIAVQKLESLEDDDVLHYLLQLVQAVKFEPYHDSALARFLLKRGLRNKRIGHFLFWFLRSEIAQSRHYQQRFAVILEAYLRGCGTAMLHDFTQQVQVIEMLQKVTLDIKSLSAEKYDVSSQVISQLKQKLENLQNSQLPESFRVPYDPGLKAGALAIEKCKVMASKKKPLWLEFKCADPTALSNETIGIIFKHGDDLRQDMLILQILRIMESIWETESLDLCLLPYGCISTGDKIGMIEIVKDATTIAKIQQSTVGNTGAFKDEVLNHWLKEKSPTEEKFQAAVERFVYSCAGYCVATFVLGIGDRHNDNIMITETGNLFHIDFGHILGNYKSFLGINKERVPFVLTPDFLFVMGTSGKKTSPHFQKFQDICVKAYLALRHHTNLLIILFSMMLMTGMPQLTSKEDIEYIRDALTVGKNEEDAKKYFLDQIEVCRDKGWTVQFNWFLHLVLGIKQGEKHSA
Test: Inhibition of PI3Kgamma (unknown origin) using PIP2 as substrate preincubated for 1 hr followed by substrate addition and measured after 60 mins in presence of ATP by ADP-glo assay
readout_type: IC50 (nM)

Below are worked cases with known answers.
Cc1cc(-c2ccn3ncc(C(=O)Nc4cnn(C)c4)c3n2)cc2c1C(=O)N([C@@H](C)C1CC1)C2
34.1
C[C@@H](C1CC1)N1Cc2cc(-c3ccn4nc(N)c(C(=O)NC5CC5)c4n3)cc(OC(F)(F)F)c2C1=O
3.6
Cc1cc(-c2ccn3nc(N)c(C(=O)N[C@@H](CO)C4CC4)c3n2)cc2c1C(=O)N([C@@H](C)C1CC1)C2
2.9
CC[C@H](N1Cc2cc(-c3ccn4nc(N)c(C(=O)NC5CC5)c4n3)cc(NS(C)(=O)=O)c2C1=O)C(F)(F)F
3.3
C[C@@H](C1CC1)N1Cc2cc(-c3ccn4nc(N)c(C(=O)N[C@@H](CO)C5CC5)c4n3)cc(OC(F)F)c2C1=O
3.1

(P) Cc1cc(-c2ccn3nc(N)c(C(=O)N[C@H](C)CO)c3n2)cc2c1C(=O)N([C@@H](C)C1CC1)C2
(Q) C[C@@H](C1CC1)N1Cc2cc(-c3ccn4nc(N)c(C(=O)N[C@H]5CC[C@](C)(O)CC5)c4n3)cc(NS(C)(=O)=O)c2C1=O
Q: Hi there! Just curious which has the higher IC50 between P and Q . Mark your answer with the label of the selected entry.
Ans: P

---

Experiment: Hepatic clearance in Sprague-Dawley rat by LC-MS/MS analysis
Type: ADME
Details: in vivo
readout_type: CLH (mL/min/kg)

Cc1cc(-c2ccn3nc(N)c(C(=O)N[C@@H]4CC[C@@H](O)C4)c3n2)cc2c1C(=O)N([C@@H](C)C1CC1)C2
71.7
CCS(=O)(=O)c1cc(-c2ccn3nc(N)c(C(=O)NC4CC4)c3n2)cc2c1C(=O)N([C@@H](C)C1CC1)C2
68.3
Cc1cc(-c2ccn3nc(N)c(C(=O)N[C@H]4CNC(=O)C4)c3n2)cc2c1C(=O)N([C@@H](C)C1CC1)C2
73.3

(P) Cc1cc(-c2ccn3ncc(C(=O)Nc4cnn(C)c4)c3n2)cc2c1C(=O)N([C@@H](C)C1CC1)C2
(Q) C[C@@H](C1CC1)N1Cc2cc(-c3ccn4nc(N)c(C(=O)NC5CC5)c4n3)cc(NS(C)(=O)=O)c2C1=O
(R) Cc1cc(-c2ccn3nc(N)c(C(=O)N[C@H]4CC[C@](C)(O)CC4)c3n2)cc2c1C(=O)N([C@@H](C)C1CC1)C2
Q: Hello, I need these entries ordered by CLH, highest reading first. Thanks! The reply should contain the labels ordered as requested.
Ans: R, P, Q
(R: 71.7 mL/min/kg, P: 48.3 mL/min/kg, Q: 12 mL/min/kg)
